Reference for the values: PubChem BioAssay (NCATS)

# protocol summary: qHTS assay for measurement of the activity of small molecule inhibitors on Zika virus induced Caspase-3 activity in human iPSC derived neural progenitor cells (hNPCs) (AID 1224857); further: % of control where 0% means no effect; nearly all actives have a fitted effect of over 65% in size
# run parameters: hNPCs ZIKV-induced caspase-3/7, Caspase-Glo luminescence, 6 h; series mostly up to 45.7 µM
Results filed as inconclusive are left out. Activity calls are given as the source filed them. The call rests on the fitted dose curve; in most records, active means well fitted inhibition curve with a large enough effect; inconclusive means small, poorly fitted or top-dose-only effect; inactive means no such curve, though single readings can be large or run the other way.
API: response.call in label 1 (active), label 0 (inactive)

CCCS(=O)(=O)Nc1ccc(F)c(C(=O)c2c[nH]c3ncc(Cl)cc23)c1F	label 0
O=C(NOC[C@H](O)CO)c1ccc(F)c(F)c1Nc1ccc(I)cc1F	label 0
COc1nc(-c2ccc3c(c2)OCO3)n(-c2ccc(NC(=O)CSc3ccccc3)cc2)n1	label 0
Cc1cc([C@@H](C)Nc2ccccc2C(=O)O)c2nc(N3CCOCC3)cc(=O)n2c1	label 0
Cc1[nH]c(=O)c(C#N)cc1-c1ccncc1	label 0
Cc1cc(-c2ccc(CC(=O)Nc3ccc(-c4cccnc4)cc3)cc2)ccn1	label 0
O=C(O)CCc1ccc(NCc2cccc(Oc3ccccc3)c2)cc1	label 0
CN1CCN(CCCN2c3ccccc3Sc3ccc(C(F)(F)F)cc32)CC1	label 0
Cc1c(C)c2c(c(C)c1O)CCC(C)(COc1ccc(CC3SC(=O)NC3=O)cc1)O2 (stereo unspecified)	label 0
OCCn1cc(-c2cnc3nnn(Cc4ccc5ncccc5c4)c3n2)cn1	label 0

Test call for this molecule, please: `CCCc1nn(C)c2c(=O)[nH]c(-c3cc(S(=O)(=O)N4CCN(C)CC4)ccc3OCC)nc12`
label 0

Would you kindly repeat that for `CNC(=O)c1ccc(N2C(=S)N(c3ccc(C#N)c(C(F)(F)F)c3)C(=O)C2(C)C)cc1F` ?
label 0

// next record `CCCS(=O)(=O)Nc1ccc(F)c(C(=O)c2c[nH]c3ncc(-c4ccc(Cl)cc4)cc23)c1F`
label 0

One more molecule: `Nc1nc2ccc(OC(F)(F)F)cc2s1`
label 0

Try this molecule too: `CC1(C)SCCN(S(=O)(=O)c2ccc(OCC#CCO)cc2)[C@@H]1C(=O)NO`
label 0

What about this molecule? `Cc1cc2c(F)c(Oc3ncnn4cc(OC[C@@H](C)O)c(C)c34)ccc2[nH]1`
label 0

Thanks! And `COc1cc(Nc2ncc3c(n2)-c2ccc(Cl)cc2C(c2c(F)cccc2OC)=NC3)ccc1C(=O)O` ?
label 0

Next molecule: `O=c1ncn2nc(Sc3ccc(F)cc3F)ccc2c1-c1c(Cl)cccc1Cl`
label 0

Now give it for `Nc1nc2c(ncn2COCCO)c(=O)[nH]1` too.
label 0

Proceed to `O=C(Nc1cccnc1)N1CCC(Cc2cccc(Oc3ccc(C(F)(F)F)cn3)c2)CC1`
label 0

# repeat for `CCOC(=O)N[C@@H]1CC[C@@H]2[C@@H](C1)C[C@H]1C(=O)O[C@H](C)[C@H]1[C@@H]2C=Cc1ccc(-c2cccc(F)c2)cn1`
label 0

// next record `CCCn1c(=O)c2[nH]c(C34CC5CC3C[C@@H](C5)C4)nc2n(CCC)c1=O`
label 0

// next record `O=NN(CCCl)C(=O)NCCCl`
label 0
